- System tested: T1, Recombinant Human DLL4 (R&D Systems Cat#1506-D4/CF) (human, UniProt Q9NR61 27-524)
- T1 construct: Bought recombinant protein; also called delta-like protein 4; rHuman DLL4
- Experiment description: ECL multispot (MSD) binding assay, DLL4 signal over blank spot; Fab concentration not given
Reported Signal/Blank values follow for various binders
Could you respond with only the numeric value?

1) Fab VH1-46_IGHD6-6*01_IGHJ1*01 S102A/S103P/S104F/H111F (APFF) & L6_IGKJ1*01 S28T (Fab, V domains shown, Fab expressed in E. coli: VH joined to CH1 (Plasmid A, His6 and Flag tags), VL joined to kappa CL (Plasmid C); also called APFF S28T) VH: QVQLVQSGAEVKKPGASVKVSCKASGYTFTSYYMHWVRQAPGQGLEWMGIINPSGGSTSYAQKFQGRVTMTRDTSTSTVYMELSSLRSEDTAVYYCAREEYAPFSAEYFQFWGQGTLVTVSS VL: EIVLTQSPATLSLSPGERATLSCRASQTVSSYLAWYQQKPGQAPRLLIYDASNRATGIPARFSGSGSGTDFTLTISSLEPEDFAVYYCQQRSNWPPWTFGQGTKVEIKR : 522
2) Fab VH1-46_IGHD6-6*01_IGHJ1*01 S102A/S103P/S104F/H111F (APFF) & L6_IGKJ1*01 S28H (Fab, V domains shown, Fab expressed in E. coli: VH joined to CH1 (Plasmid A, His6 and Flag tags), VL joined to kappa CL (Plasmid C); also called APFF S28H) VH: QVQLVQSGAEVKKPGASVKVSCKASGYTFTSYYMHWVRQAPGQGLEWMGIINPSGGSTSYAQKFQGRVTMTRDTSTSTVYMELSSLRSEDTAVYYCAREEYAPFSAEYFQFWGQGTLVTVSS VL: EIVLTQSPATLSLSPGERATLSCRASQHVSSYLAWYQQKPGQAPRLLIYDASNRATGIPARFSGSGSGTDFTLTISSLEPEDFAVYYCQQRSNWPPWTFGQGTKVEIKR : 609
3) Fab VH1-46_IGHD6-6*01_IGHJ1*01 S102A/S103P/S104F/H111F (APFF) & L6_IGKJ1*01 S28Q (Fab, V domains shown, Fab expressed in E. coli: VH joined to CH1 (Plasmid A, His6 and Flag tags), VL joined to kappa CL (Plasmid C); also called APFF S28Q) VH: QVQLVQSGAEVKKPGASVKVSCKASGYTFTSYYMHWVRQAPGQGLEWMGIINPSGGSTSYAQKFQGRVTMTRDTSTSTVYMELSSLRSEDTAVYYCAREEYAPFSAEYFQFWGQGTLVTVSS VL: EIVLTQSPATLSLSPGERATLSCRASQQVSSYLAWYQQKPGQAPRLLIYDASNRATGIPARFSGSGSGTDFTLTISSLEPEDFAVYYCQQRSNWPPWTFGQGTKVEIKR : 378
4) Fab VH1-46_IGHD6-6*01_IGHJ1*01 S102A/S103P/S104F/H111F (APFF) & L6_IGKJ1*01 S30R (Fab, V domains shown, Fab expressed in E. coli: VH joined to CH1 (Plasmid A, His6 and Flag tags), VL joined to kappa CL (Plasmid C); also called APFF S30R) VH: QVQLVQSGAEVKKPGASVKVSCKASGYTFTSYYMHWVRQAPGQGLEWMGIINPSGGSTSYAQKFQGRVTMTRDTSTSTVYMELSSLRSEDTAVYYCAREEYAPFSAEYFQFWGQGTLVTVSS VL: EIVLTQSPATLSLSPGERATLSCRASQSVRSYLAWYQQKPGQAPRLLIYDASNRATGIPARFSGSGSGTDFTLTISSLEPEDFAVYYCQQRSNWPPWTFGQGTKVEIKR : 350

Report Signal/Blank for Fab VH1-46_IGHD6-6*01_IGHJ1*01 S102A/S103P/S104F/H111F (APFF) & L6_IGKJ1*01 S28N (Fab, V domains shown, Fab expressed in E. coli: VH joined to CH1 (Plasmid A, His6 and Flag tags), VL joined to kappa CL (Plasmid C); also called APFF S28N) VH: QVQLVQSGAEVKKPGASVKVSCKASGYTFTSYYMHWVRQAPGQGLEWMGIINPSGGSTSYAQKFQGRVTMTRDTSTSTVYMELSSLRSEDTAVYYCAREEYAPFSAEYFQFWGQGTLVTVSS VL: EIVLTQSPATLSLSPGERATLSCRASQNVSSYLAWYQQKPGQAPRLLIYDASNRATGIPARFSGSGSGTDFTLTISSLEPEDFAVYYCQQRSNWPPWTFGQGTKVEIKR please. 778

Report Signal/Blank for Fab VH1-46_IGHD6-6*01_IGHJ1*01 S102A/S103P/S104F/H111F (APFF) & L6_IGKJ1*01 S30W (Fab, V domains shown, Fab expressed in E. coli: VH joined to CH1 (Plasmid A, His6 and Flag tags), VL joined to kappa CL (Plasmid C); also called APFF S30W) VH: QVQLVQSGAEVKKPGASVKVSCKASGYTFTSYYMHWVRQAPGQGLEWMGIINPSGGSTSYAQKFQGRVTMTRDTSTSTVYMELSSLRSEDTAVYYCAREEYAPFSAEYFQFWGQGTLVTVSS VL: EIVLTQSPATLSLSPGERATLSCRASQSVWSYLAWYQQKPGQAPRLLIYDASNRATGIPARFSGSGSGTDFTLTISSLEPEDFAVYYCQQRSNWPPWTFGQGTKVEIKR please. 660
